assay: BET inhibitor-based combinations targeting novel dependencies in MECOM-rearranged (r) AML: OCI-AML3 cell line (AID 2202232); settings: CellTiter-Glo luminescence, 48 h; OCI-AML3 viability; series mostly up to 46 µM; further: nearly all actives have a fitted effect of over 35% in size
Inconclusive results are not listed. The source made the active and inactive calls. The call rests on the fitted dose curve; in most records, active means well fitted inhibition curve with a large enough effect; inconclusive means small, poorly fitted or top-dose-only effect; inactive means no such curve, though single readings can be large or run the other way.
Outcomes you can answer with include only these: active, inactive

Check out these entries, answers already filled in.
Compound	Class name
COc1cc(C(=O)NC2CCN(C)CC2)ccc1Nc1ncc2c(n1)N(C1CCCC1)CCC(=O)N2C(C)C	active
CC(C)[C@@H](CS(=O)(=O)C(C)C)N1C(=O)[C@@](C)(CC(=O)O)C[C@H](c2cccc(Cl)c2)[C@H]1c1ccc(Cl)cc1	active
CC(C)=CC[C@@H](O)C1=CC(=O)c2c(O)ccc(O)c2C1=O	active
COc1nc(C)cnc1NS(=O)(=O)c1cccnc1-c1ccc(-c2nnco2)cc1	inactive
CO[C@@H]1COCC[C@@H]1N[C@@H]1CC[C@@](C(=O)N2CCc3ncc(C(F)(F)F)cc3C2)(C(C)C)C1	inactive

Name the outcome recorded for `COc1ccc2cc(OCC3(C(=O)O)CN(C(=O)c4ccc(F)cc4)C3)ccc2c1` in the assay.
inactive

Write down the call the test reported for this compound. Item: `COc1cc(SC)ccc1C(=O)N1CCC(Cc2ccccc2)CC1`
inactive

Per the records of this test, what outcome belongs to `CN1C(=O)c2sccc2N(C)c2nc(Nc3ccc(S(N)(=O)=O)cc3)ncc21` ?
active

// return assay outcome for `N#Cc1ccc(NC(=O)Nc2ccccc2Br)c2n[nH]nc12`
active

Please indicate how the test categorized `NC(=O)NO` .
inactive

Assay result, entry `CC(C)C[C@@H](C(=O)N[C@H](C(=O)OC1CCCC1)c1ccccc1)[C@H](O)C(=O)NO` — outcome?
active

Any idea what this test logged for `CCN1CCN(Cc2ccc(Nc3ncc(F)c(-c4cc(F)c5nc(C)n(C(C)C)c5c4)n3)nc2)CC1` ?
active

In this assay, the call recorded for `COc1cc(OC)c(/C=C/S(=O)(=O)Cc2ccc(OC)c(NCC(=O)O)c2)c(OC)c1` was what?
active

Tell me the recorded outcome of this test for CCC1(C)CC(=O)NC1=O (configuration not stated) .
inactive

GET /call?item= `Cc1ccc2c(c1)C(=O)[C@]1(O)CCN(c3ccccc3)C1=N2` returns the recorded outcome of this test.
active

Hi, sorry to bother you, what did the test record for `Cc1cnc(C(=O)O)c[n+]1[O-]` ?
inactive

Given `CN(C)Cc1c(C(=O)NCCOc2ccc(C(=O)NO)cc2)oc2ccccc12` , state the outcome it received in this test.
active

Record lookup: outcome of this test for `CCc1ccc(/C=C2/SC(=S)NC2=O)cc1` ?
inactive

Hi, sorry to bother you, what did the test record for `COc1ccc([C@@H]2Sc3ccccc3N(CCN(C)C)C(=O)[C@@H]2OC(C)=O)cc1` ?
inactive

====

Consider the following compounds; for each one, report its viability.
assay: BET inhibitor-based combinations targeting novel dependencies in MECOM-rearranged (r) AML: SET-2 cell line (AID 2202231); conditions: SET-2 AML cells viability, CellTiter-Glo luminescence, 48 h; active compounds read low, concentration not given here;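 further: plate controls were DMSO treated cells for no effect and wells without cells for full effect; nearly all actives have a fitted effect of over 35% in size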
Records with an inconclusive call do not appear.
Give bare numbers, in %.

                                   compound  unit_tag  result
0  C[C@@H](c1ncncc1F)[C@](O)(Cn1cncn1)c1ccc(F)cc1F         %     105
1  Nc1ccn(C2CO[C@H](CO)O2)c(=O)n1 (stereo partly specified)         %     113
2  COC(=O)N(C)c1c(N)nc(-c2nn(Cc3ccccc3F)c3ncccc23)nc1N         %     119
3  COc1cc2c(cc1OC)CC(=O)N(CCCN(C)C[C@H]1Cc3cc(OC)c(OC)cc31)CC2         %     111

// batch mode: one viability value per listed entry
1. CCOC(=O)c1c(C)n(C)c2ccc(O)cc12
2. C#C[C@]1(O)CC[C@H]2[C@@H]3CCc4cc(OC)ccc4[C@H]3CC[C@@]21C
3. CN1CCC(COc2cnc(-c3cccc(Cn4nc(-c5cccc(C#N)c5)ccc4=O)c3)nc2)CC1
4. Cc1ccc(CN2CCNCC2)cc1NC(=O)CNc1ccc(F)c(F)c1
5. Cc1c(-c2ccnn2C)cc(C(=O)NCc2ccc(S(C)(=O)=O)cn2)c(=O)n1-c1cccc(C(F)(F)F)c1
6. CC(C)NCC(O)c1ccc(O)c(O)c1 (stereo unspecified)

110
117
115
115
103
106

Provide reported viability for each item, in the same order as listed.
1. O=C(O)Cn1nnc(-c2cc(N3CCC(Oc4cc(F)ccc4Br)CC3)no2)n1
2. O=P(O)(O)C(O)(Cc1cccnc1)P(=O)(O)O
3. CCOC(=O)C=C[C@H](C[C@@H]1CCNC1=O)NC(=O)[C@@H](CC(=O)[C@@H](NC(=O)c1cc(C)on1)C(C)C)Cc1ccc(F)cc1
4. NS(=O)(=O)c1cc2c(cc1Cl)NC(C(Cl)Cl)NS2(=O)=O (stereo unspecified)
5. C#CCN[C@@H]1CCc2ccccc21
6. COc1ccc2c(c1)CC[C@@H](CN(C)CC(=O)O)[C@H]2c1ccccc1
7. O=C(O)C1CCCN(CCC=C(c2ccccc2)c2ccccc2)C1 (stereo unspecified)

1. 127
2. 110
3. 120
4. 112
5. 116
6. 116
7. 117

For every item below, please supply its viability.
1. COCCCOc1cc(C[C@@H](C[C@H](N)[C@@H](O)C[C@H](C(=O)NCC(C)(C)C(N)=O)C(C)C)C(C)C)ccc1OC
2. O=C(O)c1nc(=O)[nH]c(=O)[nH]1
3. Cc1nc(-c2ccc(OCC(C)C)c(C#N)c2)sc1C(=O)O
4. C[C@H]1COc2c(N3CCN(C)CC3)c(F)cc3c(=O)c(C(=O)O)cn1c23

1. 124
2. 105
3. 109
4. 108

====

assay: BET inhibitor-based combinations targeting novel dependencies in MECOM-rearranged (r) AML: AML-194 cell line (AID 2202237; further: nearly all actives have a fitted effect of over 40% in size); conditions: AML-194 (MECOM-r AML) viability, CellTiter-Glo, 48 h; series mostly up to 46 µM
Records with an inconclusive call do not appear. Active and inactive are the calls of the source. Calls follow the shape of the dose curve; as a rule, active = well fitted inhibition curve with a large enough effect; inconclusive = small, poorly fitted or top-dose-only effect; inactive = flat fitted curve, though single readings scatter.
Bench note: report the call from active, inactive

>>> print(df.to_string())
                                   molecule  class_name
0  Cc1c(Cn2c(C)nc3c(C(=O)O)cc(N4CCOCC4)cc32)cccc1C(F)(F)F    inactive
1    CCC1(C)CC(=O)NC1=O (centres undefined)    inactive
2     O=C(/C=C/C=C/c1ccc2c(c1)OCO2)N1CCCCC1    inactive
3  CNC(=O)c1cc(Oc2ccc(NC(=O)Nc3cc(C(C)(C)C)nn3-c3ccc4ncccc4c3)c(F)c2)ccn1      active
4  CC1CCN(c2cc(N3CCN(C)CC3)ccc2NC(=O)c2cc(C#N)c[nH]2)CC1      active
5  COc1ccc(CCN(C)CCCC(C#N)(c2ccc(OC)c(OC)c2)C(C)C)cc1OC (centres undefined)    inactive
6    c1ccc(CNc2nc(NCc3ccccc3)c3ccccc3n2)cc1      active
7  NC(=O)[C@H]1CCS[C@@H]2C[C@]3(CCCN3C(=O)Cc3ccc(NC(=O)COc4ccc(Cl)cc4Cl)cc3)C(=O)N12      active

Recorded test call requested for `COc1cc2c(Oc3ccc(-c4cnc(Nc5ccc(F)cc5)n(C)c4=O)cc3F)ccnc2cc1OCCCN1CCOCC1`
active

Fill in: this test's call for `CC(C)[C@H](CO)Nc1nc(Nc2cccc(Cl)c2)c2ncn(C(C)C)c2n1` is ___
active

# lookup: test call for `CCCCOC(=O)NS(=O)(=O)c1sc(CC(C)C)cc1-c1ccc(Cn2ccnc2)cc1`
inactive

Which outcome was assigned to `COCCOc1ccc2c(c1)ncn2-c1ccc2cccc(N3CCC(N)CC3)c2n1` in this test?
active

====

target: Aldehyde dehydrogenase, mitochondrial (Homo sapiens) (UniProt P05091); experiment: qHTS for Inhibitors of the Aldehyde Dehydrogenase Family (ALDH2) Primary screen (AID 2061308); conditions: ALDH2 enzyme inhibition qHTS, 1536-well; series mostly up to 56 µM;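 further: plate controls were vehicle for no effect and reference inhibitor for full effect; nearly all actives have a fitted effect of over 55% in size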
Records with an inconclusive call do not appear. Activity calls are given as the source filed them. Calls follow the shape of the dose curve; as a rule, active = well fitted inhibition curve with a large enough effect; inconclusive = small, poorly fitted or top-dose-only effect; inactive = flat fitted curve, though single readings scatter.
Endpoint name: activity change, negative = inhibition

A selection of reference data follows.
Molecule	activity change, negative = inhibition
C=C1CCC[C@]2(C)CC/C(=C(/CO)C(=O)OC)C[C@@H]12	inactive
Nc1ncnc2c1ncn2CCNCCCCCO	inactive
COc1cc2c3c(cc4ccccc4c3c1O)NC2=O	inactive
CC(=O)O[C@@H]1[C@H](O[C@@H]2O[C@@H](CO)[C@H](O)[C@H]2O)[C@@H](O[C@@H]2O[C@@H](C)[C@H](O[C@@H]3OC[C@@H](O)[C@H](O)[C@H]3O)[C@@H](O)[C@H]2O)[C@H](OC(=O)[C@]23CCC(C)(C)C[C@H]2C2=CCC4[C@@]5(C)CC[C@H](O[C@@H]6O[C@H](C(=O)O)[C@@H](O)[C@H](O)[C@H]6O[C@@H]6O[C@H](CO)[C@H](O)[C@H](O)[C@H]6O)[C@@](C)(C=O)C5CC[C@@]4(C)[C@]2(C)C[C@H]3O)O[C@@H]1C (stereo partly specified)	-0.326% [at 11.2 µM] (inactive)
CC(=O)N[C@H](Cc1c[nH]c2ccccc12)C(=O)OCc1cc(C(F)(F)F)cc(C(F)(F)F)c1	inactive

Pending molecule:
Given item `C[C@H](CCC(=O)O)[C@H]1CC[C@H]2[C@@H]3C[C@H](O)[C@@H]4C[C@H](O)CC[C@]4(C)[C@H]3CC[C@]12C` , the value recorded as its activity change, negative = inhibition is inactive
